These measurements were taken from ChEMBL document CHEMBL5291721.

- test system: Neuronal acetylcholine receptor subunit alpha-4 (Homo sapiens, UniProt P43681); also: assay procedure not described here
- Sequence (P43681 whole entry): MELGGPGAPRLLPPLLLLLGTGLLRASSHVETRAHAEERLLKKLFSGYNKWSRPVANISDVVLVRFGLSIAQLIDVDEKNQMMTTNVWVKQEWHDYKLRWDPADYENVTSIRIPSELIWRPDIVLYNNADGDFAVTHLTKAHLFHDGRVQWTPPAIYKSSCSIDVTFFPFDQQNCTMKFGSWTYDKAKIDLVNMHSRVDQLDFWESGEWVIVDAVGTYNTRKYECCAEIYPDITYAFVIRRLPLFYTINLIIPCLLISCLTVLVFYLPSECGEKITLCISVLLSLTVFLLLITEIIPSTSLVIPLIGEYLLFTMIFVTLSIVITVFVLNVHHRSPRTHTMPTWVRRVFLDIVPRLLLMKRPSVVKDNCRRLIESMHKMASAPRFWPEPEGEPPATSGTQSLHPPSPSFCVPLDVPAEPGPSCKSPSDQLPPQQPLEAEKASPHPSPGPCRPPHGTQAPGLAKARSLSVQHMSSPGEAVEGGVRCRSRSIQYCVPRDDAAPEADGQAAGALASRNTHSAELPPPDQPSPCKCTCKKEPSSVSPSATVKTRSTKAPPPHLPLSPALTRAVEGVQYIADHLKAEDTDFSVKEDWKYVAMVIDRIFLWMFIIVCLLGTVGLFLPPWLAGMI
parameter: AC50

1) CC[N+]1(C)CCCC(OC(=O)C(O)(c2ccccc2)c2ccccc2)C1 (stereo not given) [PIPENZOLATE]
> 30 µM
2) CCSc1ccc2c(c1)N(CCCN1CCN(C)CC1)c1ccccc1S2 [THIETHYLPERAZINE]
> 3 µM
3) COc1ccc(C(CN(C)C)C2(O)CCCCC2)cc1 (stereo not given) [VENLAFAXINE]
> 10 µM
4) CC(C)(C)NCC(O)c1cc(Cl)c(N)c(Cl)c1 (stereo not given) [CLENBUTEROL]
> 30 µM
5) O=C(CCCN1CCC2(CC1)C(=O)NCN2c1ccccc1)c1ccc(F)cc1 [SPIPERONE]
> 30 µM
